# studyTarget: RET (A883F) (Homo sapiens, UniProt P07949, A883F)
# Construct: purchased Reaction Biology Corporation (contract assay)
# Sequence (P07949 29-1114 A883F): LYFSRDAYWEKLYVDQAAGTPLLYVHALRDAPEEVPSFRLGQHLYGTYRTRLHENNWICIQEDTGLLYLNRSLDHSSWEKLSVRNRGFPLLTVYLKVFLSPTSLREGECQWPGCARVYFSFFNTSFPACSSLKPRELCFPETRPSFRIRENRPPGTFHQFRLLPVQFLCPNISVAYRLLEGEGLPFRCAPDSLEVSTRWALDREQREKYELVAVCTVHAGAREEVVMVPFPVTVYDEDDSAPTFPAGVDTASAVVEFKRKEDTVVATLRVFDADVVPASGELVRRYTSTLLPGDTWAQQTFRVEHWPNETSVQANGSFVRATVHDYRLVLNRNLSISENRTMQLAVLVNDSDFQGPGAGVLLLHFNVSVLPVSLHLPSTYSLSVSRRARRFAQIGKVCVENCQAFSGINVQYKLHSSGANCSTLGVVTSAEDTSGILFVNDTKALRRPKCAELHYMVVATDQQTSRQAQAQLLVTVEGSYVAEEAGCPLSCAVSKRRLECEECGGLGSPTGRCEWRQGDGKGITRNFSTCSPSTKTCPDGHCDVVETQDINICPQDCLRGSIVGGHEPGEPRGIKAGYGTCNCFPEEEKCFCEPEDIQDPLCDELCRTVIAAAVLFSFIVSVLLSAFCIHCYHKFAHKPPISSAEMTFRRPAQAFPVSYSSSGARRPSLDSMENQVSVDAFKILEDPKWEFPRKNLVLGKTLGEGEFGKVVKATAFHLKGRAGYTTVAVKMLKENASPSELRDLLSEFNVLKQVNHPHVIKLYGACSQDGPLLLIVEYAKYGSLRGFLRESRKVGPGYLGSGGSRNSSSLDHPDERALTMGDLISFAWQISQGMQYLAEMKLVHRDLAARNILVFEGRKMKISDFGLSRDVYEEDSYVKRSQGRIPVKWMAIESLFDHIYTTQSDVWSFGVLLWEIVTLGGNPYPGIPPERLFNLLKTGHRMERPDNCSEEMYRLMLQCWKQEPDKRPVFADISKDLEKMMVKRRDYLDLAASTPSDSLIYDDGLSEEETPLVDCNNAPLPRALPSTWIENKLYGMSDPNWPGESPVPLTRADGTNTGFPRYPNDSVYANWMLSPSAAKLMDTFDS
# assayInfo: Biochemical kinase assay
# experimentalConditions: 10 μM ATP
measuredEndpoint: IC50 (nM)
Provide the reading as a plain figure in nM.

Given item C[C@H]1CNC(=O)c2cnn3cc4c(nc23)N(Cc2cc(F)cnc2O1)[C@@H]1CCC[C@@H]1O4 , the value recorded as its IC50 is 1.2

* * *

# studyTarget: RET (M918T) (Homo sapiens, UniProt P07949, M918T)
# Construct: purchased Reaction Biology Corporation (contract assay)
# Sequence (P07949 29-1114 M918T): as the sequence (P07949 29-1114 A883F) above, with F855A, M890T counted along it
# assayInfo: Biochemical kinase assay
# experimentalConditions: 10 μM ATP
# Experimental: The biochemical kinase assay was performed at Reaction Biology Corporation (www.reactionbiology.com, Malvern, Pa.) following the procedures described in the reference (Anastassiadis T, et al Nat Biotechnol. 2011, 29, 1039). Specific kinase/substrate pairs along with required cofactors were prepared in reaction buffer; 20 mM Hepes pH 7.5, 10 mM MgCl2, 1 mM EGTA, 0.02% Brij35, 0.02 mg/ml BSA, 0.1 mM Na3VO4, 2 mM DTT, 1% DMSO. […]
measuredEndpoint: IC50

Entry C[C@H]1CNC(=O)c2cnn3cc4c(nc23)N(Cc2cc(F)cnc2O1)[C@@H]1CCC[C@@H]1O4 , tested on RET (M918T) (Homo sapiens, UniProt P07949, M918T), has a reported IC50 of 0.3 nM

* * *

# studyTarget: RET (V804L) (Homo sapiens, UniProt P07949, V804L)
# Construct: purchased Reaction Biology Corporation (contract assay)
# Sequence (P07949 29-1114 V804L): as the sequence (P07949 29-1114 A883F) above, with V776L, F855A counted along it
# assayInfo: Biochemical kinase assay
# experimentalConditions: 10 μM ATP
measuredEndpoint: IC50

Sample C[C@H]1CNC(=O)c2cnn3cc4c(nc23)N(Cc2cc(F)cnc2O1)[C@@H]1CCC[C@@H]1O4 ; IC50 observed: 6.2 nM

* * *

# studyTarget: FYN (Homo sapiens)
# Construct: purchased Reaction Biology Corporation (contract assay)
# Sequence (P06241 whole entry): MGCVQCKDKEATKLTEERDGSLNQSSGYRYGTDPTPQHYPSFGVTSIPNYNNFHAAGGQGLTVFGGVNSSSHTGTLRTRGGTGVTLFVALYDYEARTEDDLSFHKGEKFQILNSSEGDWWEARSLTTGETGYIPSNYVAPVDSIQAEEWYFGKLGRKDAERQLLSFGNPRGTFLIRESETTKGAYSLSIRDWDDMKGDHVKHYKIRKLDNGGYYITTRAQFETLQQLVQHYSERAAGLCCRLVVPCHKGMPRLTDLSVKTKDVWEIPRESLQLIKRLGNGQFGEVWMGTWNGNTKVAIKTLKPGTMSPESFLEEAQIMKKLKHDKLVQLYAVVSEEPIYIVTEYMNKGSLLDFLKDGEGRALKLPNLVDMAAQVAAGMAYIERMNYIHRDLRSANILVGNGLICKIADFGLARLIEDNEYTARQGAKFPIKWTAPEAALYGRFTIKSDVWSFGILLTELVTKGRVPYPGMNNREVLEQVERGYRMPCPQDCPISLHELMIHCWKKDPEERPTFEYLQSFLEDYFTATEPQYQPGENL
# assayInfo: Biochemical kinase assay
# experimentalConditions: 10 μM ATP
measuredEndpoint: IC50 (nM)
// units = nM; emit number, no label

Reported IC50 of C[C@H]1CNC(=O)c2cnn3cc4c(nc23)N(Cc2cc(F)cnc2O1)[C@@H]1CCC[C@@H]1O4 : 1.9

* * *

# studyTarget: RET (V804M) (Homo sapiens, UniProt P07949, V804M)
# Construct: purchased Reaction Biology Corporation (contract assay)
# Sequence (P07949 29-1114 V804M): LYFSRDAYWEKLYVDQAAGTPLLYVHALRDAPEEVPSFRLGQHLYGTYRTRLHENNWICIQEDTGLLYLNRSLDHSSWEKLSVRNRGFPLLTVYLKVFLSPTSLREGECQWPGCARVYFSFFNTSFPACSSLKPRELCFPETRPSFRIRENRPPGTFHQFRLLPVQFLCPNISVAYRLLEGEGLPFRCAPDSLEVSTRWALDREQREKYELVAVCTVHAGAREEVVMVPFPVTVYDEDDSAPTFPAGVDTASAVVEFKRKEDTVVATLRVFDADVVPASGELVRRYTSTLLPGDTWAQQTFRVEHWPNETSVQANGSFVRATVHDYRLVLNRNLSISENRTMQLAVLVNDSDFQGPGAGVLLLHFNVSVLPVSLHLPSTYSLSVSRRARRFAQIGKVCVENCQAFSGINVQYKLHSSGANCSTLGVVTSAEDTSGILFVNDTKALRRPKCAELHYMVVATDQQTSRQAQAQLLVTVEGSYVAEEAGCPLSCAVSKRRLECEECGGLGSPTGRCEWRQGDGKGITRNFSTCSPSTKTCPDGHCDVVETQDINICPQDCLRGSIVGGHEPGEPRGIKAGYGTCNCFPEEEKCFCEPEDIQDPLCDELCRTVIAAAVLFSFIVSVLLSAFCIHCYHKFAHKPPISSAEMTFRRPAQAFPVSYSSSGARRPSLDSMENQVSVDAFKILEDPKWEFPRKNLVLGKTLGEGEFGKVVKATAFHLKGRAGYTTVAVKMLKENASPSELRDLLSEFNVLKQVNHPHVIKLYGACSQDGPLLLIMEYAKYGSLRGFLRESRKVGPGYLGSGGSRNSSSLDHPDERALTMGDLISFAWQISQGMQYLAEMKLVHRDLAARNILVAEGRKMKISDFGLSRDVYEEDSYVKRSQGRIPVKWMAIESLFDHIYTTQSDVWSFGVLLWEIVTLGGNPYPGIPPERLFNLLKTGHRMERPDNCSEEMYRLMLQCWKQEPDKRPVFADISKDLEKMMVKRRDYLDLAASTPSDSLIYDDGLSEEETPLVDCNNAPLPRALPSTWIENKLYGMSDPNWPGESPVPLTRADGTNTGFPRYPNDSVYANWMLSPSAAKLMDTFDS
# assayInfo: Biochemical kinase assay
# experimentalConditions: 10 μM ATP
measuredEndpoint: IC50 (nM)
Entry rule: numbers only, all in nM.

The value of IC50 measured for the molecule C[C@H]1CNC(=O)c2cnn3cc4c(nc23)N(Cc2cc(F)cnc2O1)[C@@H]1CCC[C@@H]1O4 turned out to be 8.1
